- TEST CONTEXT: pH 10.0
logD under 5 gets criterion met, anything at or over 5 gets criterion not met.

stdin: Does the reported logD of "CC(C)OC(=O)C1=C(CSc2nc3c(cc2C#N)CCCCC3)OC(N)=C(C#N)[C@@H]1c1ccncc1" stay below 5?
stdout: criterion not met

stdin: Does the reported logD of "Cc1cc(C(F)(F)F)nn1[C@@H](C)c1nnc(Nc2ccn(Cc3ccccc3)n2)s1" stay below 5?
stdout: criterion not met

stdin: Does the reported logD of "CCOC(=O)C1=C(N)N2C(=O)[C@H](C)SC2=C(C(=O)OCC)[C@H]1c1ccc(Cl)cc1Cl" stay below 5?
stdout: criterion not met

stdin: Does the reported logD of "COc1cc([C@@H]2Nc3cc(C)c(C)cc3NC3=C2C(=O)CC(C)(C)C3)cc(OC)c1OC(C)=O" stay below 5?
stdout: criterion met

stdin: Does the reported logD of "Cc1nn(C)cc1-c1cc(C(F)(F)F)n2nc(C(=O)N3C[C@@H](C)O[C@@H](C)C3)cc2n1" stay below 5?
stdout: criterion met

stdin: Does the reported logD of "CCOC(=O)c1c(CC(C)C)csc1/N=C/c1c(C)nn(-c2ccccc2)c1O" stay below 5?
stdout: criterion not met

stdin: Does the reported logD of "O=C1[C@@H]2C3c4ccccc4C(c4ccccc43)[C@@H]2C(=O)N1c1nccs1" stay below 5?
stdout: criterion met

stdin: Does the reported logD of "CC(=O)c1ccc(N2CCN(C(=O)/C=C/c3ccc(C)o3)CC2)cc1" stay below 5?
stdout: criterion met

stdin: Does the reported logD of "CCSCCOC(=O)C1=C(C)NC2=C(C(=O)C[C@@H](c3cccs3)C2)[C@@H]1c1ccc(C(=O)OC)cc1" stay below 5?
stdout: criterion not met

stdin: Does the reported logD of "CCOC(=O)[C@H]1N=C(C2=C(O)c3ccccc3C2=O)[C@@H]2C(=O)N(N(C)c3ncc(C(F)(F)F)cc3Cl)C(=O)[C@@H]21" stay below 5?
stdout: criterion met

Others:
stdin: Does the reported logD of "CC1=C(C(=O)OC[C@@H]2CCCO2)[C@H](c2cc([N+](=O)[O-])ccc2Cl)C2=C(CC(C)(C)CC2=O)N1" stay below 5?
stdout: criterion met

stdin: Does the reported logD of COC(=O)C1=C(C)N=C(C)C(C(=O)OC)[C@@H]1c1cccc(Cl)c1 (stereo partly drawn) stay below 5?
stdout: criterion met

stdin: Does the reported logD of "CCCCSC1=C(C#N)[C@H](c2cccc([N+](=O)[O-])c2)C(C(C)=O)=C(C)N1" stay below 5?
stdout: criterion met

stdin: Does the reported logD of "CCO/C(O)=C/c1nc2nonc2nc1O" stay below 5?
stdout: criterion met

stdin: Does the reported logD of "COc1ccc2c(c1)C(=O)N(Cc1ccco1)C(=O)/C2=C\Nc1c(C)n(C)n(-c2ccccc2)c1=O" stay below 5?
stdout: criterion met

stdin: Does the reported logD of "O=[N+]([O-])c1ccccc1/C=N/c1ccc(/N=C/c2ccccc2[N+](=O)[O-])cc1" stay below 5?
stdout: criterion met

====

- TEST DESCRIPTION: method code SF, from DOI: 10.1016/j.ejps.2012.10.019, PMID: 23131797
- TEST CONTEXT: pH 10.0
# key: entry, value: logD

Below: 10 molecules and their reported logD.
logD recorded for this molecule, "Cc1ccc2c(C)nc(Nc3nc4c(c(=O)[nH]3)CCCC4)nc2c1" , is 3.92

logD recorded for this molecule, "COc1ccc(NC(=O)c2sc3sc(C(=O)Nc4ccc(OC)c(OC)c4)c(N)c3c2N)cc1OC" , is 4.88

logD recorded for this molecule, "Nc1nc2nc3nc(N)sc3cc2s1" , is 1.56

logD recorded for this molecule, CCOC(=O)C1=C(C)NC(C)=C(C(=O)OC)C1c1ccco1 (stereo not drawn) , is 3.67

logD recorded for this molecule, "O=C(c1ccc2c(c1)C(=O)N(c1nccs1)C2=O)c1ccc2c(c1)C(=O)N(c1nccs1)C2=O" , is 3.25

logD recorded for this molecule, "CCCSc1nc2c(c(=O)n1-c1ccc(Br)cc1)SCC2" , is 4.61

logD recorded for this molecule, "Nc1ccccc1Nc1ccccc1" , is 2.67

logD recorded for this molecule, "CC1(C)CC(=O)C2=C(C1)OC(N)=C(C#N)C21CCC2(CC1)OCCO2" , is 3.24

logD recorded for this molecule, "Cc1cc(C)c(NC(=O)CSc2nnc(-c3ccc(OC(F)F)cc3)n2N)c(C)c1" , is 4.41

logD recorded for this molecule, "c1nc(NC2CCCC2)c2c3c(sc2n1)CCCC3" , is 4.17

Others:
logD recorded for this molecule, CC1CN(c2nc3ccccn3c(=O)c2C=C(C#N)C#N)CC(C)O1 (stereo not drawn) , is 3.24

logD recorded for this molecule, "CCc1noc(-c2[nH]c3ccccc3c2C(=O)C(=O)N(C)C)c1C" , is 2.68

logD recorded for this molecule, "CCOC(=O)CC1=Nn2c(nnc2-c2cccs2)SC1" , is 2.98

logD recorded for this molecule, "Cn1c(N)c(C(=O)COC(=O)C2CC2)c(=O)n(C)c1=O" , is 2.17

logD recorded for this molecule, "COc1ccc(C(=O)Cn2c(N3CCCCCC3)nc3c2c(=O)n(C)c(=O)n3C)cc1" , is 4.42

logD recorded for this molecule, "Cc1cc(C(F)(F)F)n2nc(-c3nnc(-c4cccc(C(F)(F)F)c4)o3)cc2n1" , is 4.92

logD recorded for this molecule, "Cc1ccc(C)n1-c1ccc(-c2ccnc3ncnn23)cc1" , is 3.5

logD recorded for this molecule, "CN(C)S(=O)(=O)c1cccc(C(=O)NCCc2ccc(Cl)cc2Cl)c1" , is 4.48
